Provenance of the data: patent US20210380703A1

Biological target: T1, Human ACVR2A (human, UniProt P27037 20-135, limits assumed); also: test concentration or dose not given here
T1 construct: also called activin receptor, type II A
T1 sequence (P27037 20-135 limits assumed): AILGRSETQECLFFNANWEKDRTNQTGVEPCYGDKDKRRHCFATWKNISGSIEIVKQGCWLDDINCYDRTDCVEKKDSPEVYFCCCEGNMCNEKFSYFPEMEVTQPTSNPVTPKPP
Assay: ELISA
Measured optical density accompanies every entry in the list below.

binder	unit.abbrev	optical density
370_G10 (antibody, V domains shown) VH: EVQLLESGGGLVQPGGSLRLSCAASGFTFSDYGMNWVRQAPGKGLEWVSGINYNSGYTSYADSVKGRFTISRDNSKNTLYLQMNSLRAEDTAVYYCARSANWHDTALDYWGQGTLVTVSS VL: DIQMTQSPSSLSASVGDRVTITCRASQSISSYLNWYQQKPGKAPKLLIYVVNNRASGVPSRFSGSGSGTDFTLTISSLQPEDFATYYCQQSYENPLTFGGGTKVEIK	OD	2.98
370_C08 (antibody, V domains shown) VH: EVQLLESGGGLVQPGGSLRLSCAASGFTFSSYGMNWVRQAPGKGLEWVAGINYNGGYKGYADSVKGRFTISRDNSKNTLYLQMNSLRAEDTAVYYCARSANWHDTALDYWGQGTLVTVSS VL: DIQMTQSPSSLSASVGDRVTITCRASQSISNYLNWYQQKPGKAPKLLIYAVTSRASGVPSRFSGSGSGTDFTLTISSLQPEDFATYYCQQSYDSPLTFGGGTKVEIK	OD	2.73
370_F05 (antibody, V domains shown) VH: EVQLLESGGGLVQPGGSLRLSCAASGFTFSSYGMNWVRQAPGKGLEWVSGINYNSGYTSYADSVKGRFTISRDNSKNTLYLQMNSLRAEDTAVYYCARSANWHDTALDYWGQGTLVTVSS VL: DIQMTQSPSSLSASVGDRVTITCRASQSIVSYVNWYQQKPGKAPKLVIYAATSRASGVPSRFSGSGSGTDFTLTISSLQPEDFATYYCQQSYETPLTFGGGTKVEIK	OD	2.76
374_C06 (antibody, V domains shown) VH: EVQLLESGGGLVQPGGSLRLSCAASGFTFDDYSMNWVRQAPGKGLEWVSSINYNSGYKGYADSVKGRFTISRDNSKNTLYLQMNSLRAEDTAVYYCARSANWHDTALDYWGQGTLVTVSS VL: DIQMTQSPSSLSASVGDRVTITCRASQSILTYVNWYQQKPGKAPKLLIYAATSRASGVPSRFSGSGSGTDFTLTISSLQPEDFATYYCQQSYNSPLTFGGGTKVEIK	OD	3.71
370_A03 (antibody, V domains shown) VH: EVQLLESGGGLVQPGGSLRLSCAASGFTFSSYSMNWVRQAPGKGLEWVSNINYNGGYTSYADSVKGRFTISRDNSKNTLYLQMNSLRAEDTAVYYCARSANWHDTALDYWGQGTLVTVSS VL: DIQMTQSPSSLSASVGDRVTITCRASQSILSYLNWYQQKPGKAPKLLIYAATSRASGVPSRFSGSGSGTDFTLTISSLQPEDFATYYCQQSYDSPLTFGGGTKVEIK	OD	3.54
